Tested on: HCT-116
Test: Cytotoxicity in human HCT-116 cells assessed as reduction in cell viability incubated for 72 hrs by MTT assay
Assay type: functional, cell-based
Details: HCT-116, 72 h
Measurement Label: IC50 (µM)
One number for each entry, in µM.

- Molecule: "CO[C@@H]1[C@H](O)[C@@H]([C@@H](O[C@H]2OC(C(=O)NCc3ccc(N4CCC(Oc5ccc(OC(F)(F)F)cc5)CC4)cc3)=C[C@H](O)[C@@H]2O)C(N)=O)O[C@H]1n1ccc(=O)[nH]c1=O"
  Target System: "HCT-116"
  Measurement Unit: "µM"
  IC50: 25

Okay, next one:
Name the reported IC50 value associated with the molecule CO[C@H]1[C@@H](O)[C@H](n2ccc(=O)[nH]c2=O)O[C@@H]1[C@@H](O[C@H]1OC(C(=O)NCc2ccc(N3CCC(Oc4ccc(OC(F)(F)F)cc4)CC3)cc2)=C[C@H](O)[C@@H]1O)C(N)=O
15

Origin of the recorded values: ChEMBL document CHEMBL4699480
